# Tested Target: AAK1 (Homo sapiens)
# Construct: purchased DiscoverX (KINOMEscan)
# Sequence (Q2M2I8 whole entry): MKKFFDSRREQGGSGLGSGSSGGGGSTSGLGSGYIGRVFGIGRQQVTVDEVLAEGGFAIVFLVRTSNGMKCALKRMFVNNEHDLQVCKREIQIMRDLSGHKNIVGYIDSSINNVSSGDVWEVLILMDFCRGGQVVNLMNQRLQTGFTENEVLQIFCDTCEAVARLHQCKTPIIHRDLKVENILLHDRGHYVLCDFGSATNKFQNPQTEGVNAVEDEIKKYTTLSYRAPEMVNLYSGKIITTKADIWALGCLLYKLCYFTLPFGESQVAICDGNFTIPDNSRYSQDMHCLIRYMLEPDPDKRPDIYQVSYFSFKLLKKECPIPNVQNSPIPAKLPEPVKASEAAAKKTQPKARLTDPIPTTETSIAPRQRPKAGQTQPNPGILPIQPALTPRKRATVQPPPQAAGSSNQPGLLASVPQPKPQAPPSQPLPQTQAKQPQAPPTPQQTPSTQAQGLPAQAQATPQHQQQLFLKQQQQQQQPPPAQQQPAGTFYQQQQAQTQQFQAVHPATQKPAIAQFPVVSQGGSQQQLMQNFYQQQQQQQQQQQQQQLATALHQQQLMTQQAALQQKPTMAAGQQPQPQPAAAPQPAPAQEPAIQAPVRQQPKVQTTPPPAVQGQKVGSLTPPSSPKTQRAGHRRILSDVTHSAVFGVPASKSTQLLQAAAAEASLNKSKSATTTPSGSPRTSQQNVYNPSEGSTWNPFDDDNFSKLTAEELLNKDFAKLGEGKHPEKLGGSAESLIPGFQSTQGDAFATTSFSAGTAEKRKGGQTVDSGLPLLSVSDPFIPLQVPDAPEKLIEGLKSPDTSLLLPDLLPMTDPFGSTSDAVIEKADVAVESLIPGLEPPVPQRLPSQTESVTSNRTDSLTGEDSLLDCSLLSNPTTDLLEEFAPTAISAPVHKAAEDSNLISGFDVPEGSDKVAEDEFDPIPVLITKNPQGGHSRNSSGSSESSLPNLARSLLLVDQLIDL
# Experiment: KINOMEscan competitive binding
# Test Context: 10 µM, n=1; kinase AAK1; read-out: Percent inhibition AAK1
Observation Type: inhibition at 10 µM (%)
Supply the numeric figure in %, leaving out any unit text.

Compound Structure String	inhibition at 10 µM (%)
c1ccc(COc2cccc(-c3ccnc4[nH]ccc34)c2)cc1	95.1
Cc1ccc(O)cc1Nc1ccnc(Nc2cccc(C(N)=O)c2)n1	0
COc1cc(Nc2nccc(-c3sc(N)nc3-c3cccc(NC(=O)c4c(F)cccc4F)c3)n2)cc(OC)c1OC	92.8
CN1CCN(c2ccc(Nc3nccc(-c4cnn5ncccc45)n3)cc2C#N)CC1	99.9
COc1ccc(Nc2nccc(-c3cnn4ncccc34)n2)cc1	99.7
Clc1ccc(Nc2ncc(-c3ccccc3)s2)cc1	0

Query: Endpoint output: inhibition at 10 µM of Fc1cccc(COc2ccc(Nc3ncnc4c3CN(CCN3CCOCC3)CC4)cc2Cl)c1 . Value?
Response: 0

Query: Return reported inhibition at 10 µM; argument: Cc1ccc(O)cc1N(C)c1ccnc(Nc2cccc(S(N)(=O)=O)c2)n1
Response: 0

Query: Reported inhibition at 10 µM for C[C@@H](Oc1cc(-c2cnc3ccccn23)sc1C(N)=O)c1ccccc1Cl : what is it?
Response: 97.5

Query: So what's the measured inhibition at 10 µM for this one? Nc1ncc2c(-c3ccncc3)c[nH]c2n1
Response: 79.4
